All values here come from the PolyMetriX glass transition set.

Each entry below carries its recorded glass transition temperature.
Respond numerically; units are °C and should not be typed.

*CC(*)(C)C(=O)OCC1COCCOCCOCCOCCOC1 (repeat unit); 31.00
*CCN(*)C(=O)c1c(F)cccc1F (repeat unit); 121.50

Consider now this further molecule.
State the recorded glass transition temperature for this entry: *C(=O)c1ccc2c(c1)C(=O)N(c1cccc(P(=O)(c3cccc(N4C(=O)c5ccc(*)cc5C4=O)c3)c3cc(C(F)(F)F)cc(C(F)(F)F)c3)c1)C2=O (repeat unit)
243.00

----------
Each entry below carries its recorded glass transition temperature.
Respond numerically; units are °C and should not be typed.

State the recorded glass transition temperature for this entry: *CC(O)CN(*)c1ccc(/N=N/c2ccc(C(=O)O)cc2)cc1 (repeat unit)
99.00

State the recorded glass transition temperature for this entry: *c1ccc(Oc2ccc(N3C(=O)c4cccc(Oc5ccc(S(=O)(=O)c6ccc(Oc7cccc8c7C(=O)N(*)C8=O)cc6)cc5)c4C3=O)cc2)cc1 (repeat unit)
267.00

State the recorded glass transition temperature for this entry: *C(=O)c1ccc(C(=O)N(*)c2ccccc2)cc1 (repeat unit)
179.00

State the recorded glass transition temperature for this entry: *CCOc1ccc(S(=O)(=O)c2ccc(OCCOP(=O)(O*)Oc3ccc(C)cc3)cc2)cc1 (repeat unit)
46.00

State the recorded glass transition temperature for this entry: *c1ccc(-c2cnc3ccc(Oc4ccc5ncc(*)nc5c4)cc3n2)cc1 (repeat unit)
306.00

State the recorded glass transition temperature for this entry: *Oc1ccc(OC(=O)c2ccc(C(*)=O)cc2)cc1C1CCCCCCC1 (repeat unit)
213.00
